- Target of assay: T1, PDZD7_3, Q9H5P4
- T1 sequence (Q9H5P4 857-944, limits assumed, looked up): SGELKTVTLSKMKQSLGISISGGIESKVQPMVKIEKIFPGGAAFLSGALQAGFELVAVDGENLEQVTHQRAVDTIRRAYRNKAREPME
- Protocol description: holdup assay
- Design: key: below the threshold = too weak to quantify, mostly under pKd 3.1 to 4
- Settings: plain residues with an end cap or a label only (N-terminal biotin on a linker: ado-ado)
So I've got a bunch of binders here, and I need their pKd values.
One number for each entry.

Each binder below has a recorded value; state its pKd.
1. EDPRVEVTQF [SLC22A9, Q8IVM8]
2. NIAESLESLV [PTPRZ1, P23471]
3. RFQQRMQTHV [KIRREL1, Q96J84]
4. MQHQRTHTRV [ZSCAN30, Q86W11]

# output
[4.23, 4.7, 4.5, 4.37]
